- experimental_system: Melanocyte-stimulating hormone receptor (Homo sapiens)
- Sequence (Q01726 whole entry, looked up): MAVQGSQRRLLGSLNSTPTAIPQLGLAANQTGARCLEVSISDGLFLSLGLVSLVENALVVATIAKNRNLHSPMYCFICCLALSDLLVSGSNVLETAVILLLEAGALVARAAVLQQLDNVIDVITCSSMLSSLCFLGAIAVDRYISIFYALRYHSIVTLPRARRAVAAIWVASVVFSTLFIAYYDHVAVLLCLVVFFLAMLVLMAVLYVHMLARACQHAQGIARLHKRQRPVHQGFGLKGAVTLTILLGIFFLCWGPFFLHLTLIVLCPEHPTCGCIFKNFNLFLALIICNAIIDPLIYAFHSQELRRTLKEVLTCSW
- assay_text: Agonist activity at human MC1R at 10 uM
- Format: functional
Under this convention, y denotes Activity strictly below 30% and n denotes Activity at or above 30%.

[
  {
    "molecule": "N=C(N)NCCC[C@H](NC(=O)[C@@H](Cc1ccccc1)NC(=O)C1(NC(=O)Cc2ccccc2)CCc2c(Br)cccc2C1)C(=O)N[C@@H](Cc1c[nH]c2ccccc12)C(=O)Nc1ccccc1C(N)=O (stereo not given in full)",
    "experimental_system": "Melanocyte-stimulating hormone receptor (Homo sapiens)",
    "class": "n"
  },
  {
    "molecule": "N=C(N)NCCC[C@H](NC(=O)[C@@H](Cc1ccccc1)NC(=O)[C@]1(NC(=O)Cc2ccccc2)CC[C@@H](c2ccccc2)CC1)C(=O)N[C@@H](Cc1c[nH]c2ccccc12)C(=O)NCc1ccc(C(N)=O)cc1",
    "experimental_system": "Melanocyte-stimulating hormone receptor (Homo sapiens)",
    "class": "n"
  },
  {
    "molecule": "CCCC(=O)N[C@]1(C(=O)N[C@H](Cc2ccccc2)C(=O)N[C@@H](CCCN=C(N)N)C(=O)NC(Cc2ccc3ccccc3c2)C(=O)NCc2cccc(C(N)=O)c2)CC[C@H](c2ccccc2)CC1 (stereo not given in full)",
    "experimental_system": "Melanocyte-stimulating hormone receptor (Homo sapiens)",
    "class": "y"
  },
  {
    "molecule": "CCCC(=O)N[C@]1(C(=O)N[C@H](Cc2ccccc2)C(=O)N[C@@H](CCCN=C(N)N)C(=O)N[C@@H](Cc2c[nH]c3ccccc23)C(=O)NCc2ccc(C(N)=O)cc2)CC[C@H](c2ccccc2)CC1",
    "experimental_system": "Melanocyte-stimulating hormone receptor (Homo sapiens)",
    "class": "n"
  },
  {
    "molecule": "N=C(N)NCCC[C@H](NC(=O)[C@@H](Cc1ccccc1)NC(=O)[C@]1(NC(=O)Cc2ccccc2)CC[C@@H](c2ccccc2)CC1)C(=O)N[C@@H](Cc1c[nH]c2ccccc12)C(=O)NCc1cccc(C(N)=O)c1",
    "experimental_system": "Melanocyte-stimulating hormone receptor (Homo sapiens)",
    "class": "n"
  },
  {
    "molecule": "CCCC(=O)N[C@]1(C(=O)N[C@H](Cc2ccccc2)C(=O)N[C@@H](CCCN=C(N)N)C(=O)N[C@@H](Cc2ccc3ccccc3c2)C(=O)NCC(N)=O)CC[C@H](c2ccccc2)CC1",
    "experimental_system": "Melanocyte-stimulating hormone receptor (Homo sapiens)",
    "class": "y"
  },
  {
    "molecule": "N=C(N)NCCC[C@H](NC(=O)[C@@H](Cc1ccccc1)NC(=O)[C@]1(NC(=O)Cc2ccccc2)CC[C@@H](c2ccccc2)CC1)C(=O)N[C@@H](Cc1c[nH]c2ccccc12)C(=O)Nc1ccccc1C(N)=O",
    "experimental_system": "Melanocyte-stimulating hormone receptor (Homo sapiens)",
    "class": "n"
  },
  {
    "molecule": "CCCCNC(=O)NC1(C(=O)N[C@H](Cc2ccccc2)C(=O)N[C@@H](CCCN=C(N)N)C(=O)N[C@@H](Cc2c[nH]c3ccccc23)C(=O)Nc2ccccc2C(N)=O)CCc2c(Br)cccc2C1 (stereo not given in full)",
    "experimental_system": "Melanocyte-stimulating hormone receptor (Homo sapiens)",
    "class": "n"
  }
]
